Test system: MvaT
ASSAY INFO: PBM 8-mer E-score (mean of HK and ME arrays) (E-score (dimensionless, -0.5 to 0.5)); higher = stronger relative binding preference
Over roughly 33,000 sequences, “E-score (dimensionless, -0.5 to 0.5)” has its median near -0.058; the highest 2% begin near 0.35. The full list was thinned out, with the highest values kept by preference.
MEASURED ATTRIBUTE: PBM 8-mer E-score
One number for each entry.

Solved entries:
sequence_input=GCGTATAA tested_system=MvaT assay_value=0.201
sequence_input=CGGTCCGA tested_system=MvaT assay_value=-0.24
sequence_input=CATAAGGA tested_system=MvaT assay_value=-0.0113

Your task in this section: give PBM 8-mer E-score for each listed record.
1. CCATATAG
2. GTGTATAA
3. AGTCCAGA

[out]
1. 0.084
2. 0.202
3. -0.101
